Experiment: Selectivity index, ratio of inhibition of human MT4 cells to EC50 for HIV1 3B
Format: toxicity, cell-based
Settings: read-out: Selectivity Index
endpoint: selectivity ratio
Lab note: record just the number, no unit beside it.

For Cc1cccc(N2C(=O)CSC2c2c(Cl)cccc2Cl)n1 (stereo unspecified) the molecule record lists selectivity ratio as 6470

----------
Biological target: Follicle-stimulating hormone receptor (Homo sapiens)
Sequence (P23945 whole entry): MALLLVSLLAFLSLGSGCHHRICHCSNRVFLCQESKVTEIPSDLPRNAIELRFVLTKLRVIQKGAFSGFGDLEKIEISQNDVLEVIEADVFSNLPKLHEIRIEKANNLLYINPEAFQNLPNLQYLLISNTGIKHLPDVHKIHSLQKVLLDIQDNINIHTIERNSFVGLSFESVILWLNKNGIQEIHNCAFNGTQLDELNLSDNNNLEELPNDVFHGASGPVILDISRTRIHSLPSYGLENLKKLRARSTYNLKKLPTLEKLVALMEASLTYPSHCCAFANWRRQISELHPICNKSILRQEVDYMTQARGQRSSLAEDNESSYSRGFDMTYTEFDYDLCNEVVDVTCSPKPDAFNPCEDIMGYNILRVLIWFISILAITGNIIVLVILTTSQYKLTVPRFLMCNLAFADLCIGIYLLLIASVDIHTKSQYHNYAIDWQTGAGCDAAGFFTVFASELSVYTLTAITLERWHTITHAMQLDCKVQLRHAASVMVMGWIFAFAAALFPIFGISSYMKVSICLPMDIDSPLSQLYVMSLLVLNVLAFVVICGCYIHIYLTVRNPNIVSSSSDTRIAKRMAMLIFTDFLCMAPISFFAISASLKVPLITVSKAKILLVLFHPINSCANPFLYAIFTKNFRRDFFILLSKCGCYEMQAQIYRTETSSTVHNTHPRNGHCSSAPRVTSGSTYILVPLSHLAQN
Experiment: Agonist activity at human recombinant FSH receptor
endpoint: pEC50
# log scale: pEC50 equals minus log10 of the concentration in mol/L

For COc1ccc(C2SC(CC(=O)NCCC3=CCc4ccccc43)C(=O)N2c2ccc(C(N)=O)c(Cl)c2)cc1 (stereo unspecified) the compound record lists pEC50 as 5.30
